# ASSAY_SYSTEM: MerTK (Homo sapiens)
# Construct: Seed HUVECs (10K cells/well) in EBM-2 complete media
# PROTOCOL_NOTES: PAKT HTRF-HUVEC assay (pAkt Ser473 HTRF after anti-human MerTK-XL stimulation)
# EXPERIMENTAL_PARAMETERS: HUVEC cells, 1 hour compound, stimulated with anti-human MerTK-XL 1 ug/mL for 10 minutes, read-out: inhibition of MerTK
pEC50: −log10 of the molar value.
MEASURE_NAME: pEC50

Use these answered entries as a reference point.
>  <MOLECULE>
O=c1c2cc(N3CCN(CC(F)(F)F)CC3)ccc2c2cnc(NCC3CC3)nc2n1[C@H]1CC[C@H](O)CC1 [Compound 168]

>  <pEC50>
6.54

$$$$
>  <MOLECULE>
CN1CCN(Cc2ccc3c(c2)c(=O)n(C2CCN(C(=O)CC#N)CC2)c2nc(NCC4CC4)ncc32)CC1 [Compound 192]

>  <pEC50>
5.39

$$$$
>  <MOLECULE>
CC(C)CNc1ncc2c3ccc(CN4CCN(C)CC4)cc3c(=O)n([C@H]3CC[C@H](O)CC3)c2n1 [Compound 130]

>  <pEC50>
7.29

$$$$
>  <MOLECULE>
O=C(O)C1CCN(Cc2ccc3c(c2)c(=O)n([C@H]2CC[C@H](O)CC2)c2nc(NCC4CC4)ncc32)CC1 [Compound 200]

>  <pEC50>
4.95

$$$$
>  <MOLECULE>
CCCCNc1ncc2c3ccc(N4CCN(C(C)C)CC4)cc3c(=O)n([C@H]3CC[C@H](O)CC3)c2n1 [Compound 69]

>  <pEC50>
7.69

$$$$
>  <MOLECULE>
CN1CCN(Cc2ccc3c(c2)c(=O)n(C2CCN(C(=O)OC(C)(C)C)CC2)c2nc(NCC4CC4)ncc32)CC1 [Compound 188]

>  <pEC50>
4.95

$$$$
>  <MOLECULE>
CC(C)N1CCN(Cc2ccc3c(c2)c(=O)n([C@H]2CC[C@](C)(O)CC2)c2nc(NCC4CC4)ncc32)CC1 [Compound 31]

>  <pEC50>
7.90

$$$$

(A) O=c1c2cc(CN3CCN(C4COC4)CC3)ccc2c2cnc(NCC3CC3)nc2n1[C@H]1CC[C@H](O)CC1 [Compound 35]
(B) CCC(F)(F)CNc1ncc2c3ccc(CN4CCN(C(C)(C)C)CC4)cc3c(=O)n([C@H]3CC[C@H](O)CC3)c2n1 [Compound 198]
Request: Form field 'greater pEC50' accepts A or B ; which applies? Refer to your chosen entry by its label in the reply.
Result: B

====

# ASSAY_SYSTEM: MerTK (Homo sapiens, UniProt Q12866)
# Construct: Seed HUVECs (10K cells/well) in EBM-2 complete media
# Sequence (Q12866 21-999): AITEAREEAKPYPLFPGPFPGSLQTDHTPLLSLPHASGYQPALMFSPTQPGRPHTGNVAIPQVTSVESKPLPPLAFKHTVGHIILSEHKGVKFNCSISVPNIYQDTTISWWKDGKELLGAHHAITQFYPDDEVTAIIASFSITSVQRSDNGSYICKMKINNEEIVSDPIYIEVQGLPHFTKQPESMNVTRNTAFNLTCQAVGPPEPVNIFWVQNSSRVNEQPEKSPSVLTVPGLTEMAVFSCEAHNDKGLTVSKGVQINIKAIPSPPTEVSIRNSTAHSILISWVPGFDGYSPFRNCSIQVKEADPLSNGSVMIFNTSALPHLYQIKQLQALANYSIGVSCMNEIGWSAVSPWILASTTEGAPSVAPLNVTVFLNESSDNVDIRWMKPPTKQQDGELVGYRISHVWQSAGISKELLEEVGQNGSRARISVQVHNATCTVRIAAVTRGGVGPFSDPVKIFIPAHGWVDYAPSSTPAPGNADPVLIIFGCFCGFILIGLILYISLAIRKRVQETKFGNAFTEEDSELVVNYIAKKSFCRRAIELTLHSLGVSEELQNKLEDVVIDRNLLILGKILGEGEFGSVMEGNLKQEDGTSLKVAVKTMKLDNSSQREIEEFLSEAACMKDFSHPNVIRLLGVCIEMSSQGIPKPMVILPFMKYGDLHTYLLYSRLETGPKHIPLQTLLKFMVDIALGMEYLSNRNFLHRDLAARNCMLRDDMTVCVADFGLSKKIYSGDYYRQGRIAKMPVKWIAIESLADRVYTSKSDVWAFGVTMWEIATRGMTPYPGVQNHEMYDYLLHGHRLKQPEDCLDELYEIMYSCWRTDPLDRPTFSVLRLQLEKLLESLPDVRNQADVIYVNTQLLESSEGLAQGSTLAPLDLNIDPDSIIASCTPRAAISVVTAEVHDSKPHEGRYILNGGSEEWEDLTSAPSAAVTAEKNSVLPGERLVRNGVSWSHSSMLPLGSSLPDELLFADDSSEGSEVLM
# PROTOCOL_NOTES: PAKT HTRF-HUVEC assay (pAkt Ser473 HTRF after anti-human MerTK-XL stimulation)
# EXPERIMENTAL_PARAMETERS: HUVEC cells, 1 hour compound, stimulated with anti-human MerTK-XL 1 ug/mL for 10 minutes, read-out: inhibition of MerTK
MEASURE_NAME: EC50 (nM)

Here is how some compounds turned out for EC50.
>  <COMPOUND>
CC(C)CCNc1ncc2c3ccc(CN4CCN(c5ccncc5)CC4)cc3c(=O)n([C@H]3CC[C@H](O)CC3)c2n1

>  <UNITS>
nM

>  <EXPERIMENTAL_VALUE>
14.3

$$$$
>  <COMPOUND>
O=c1c2cc(CN3CCn4ncnc4C3)ccc2c2cnc(NCC3CC3)nc2n1[C@H]1CC[C@H](O)CC1 [Compound 39]

>  <UNITS>
nM

>  <EXPERIMENTAL_VALUE>
64.6

$$$$

(P) CN1CCN(Cc2ccc3c(c2)c(=O)n([C@H]2CC[C@H](OC(N)=O)CC2)c2nc(N(CC4CC4)C(N)=O)ncc32)CC1
(Q) CCC1(CNc2ncc3c4ccccc4c(=O)n([C@H]4CC[C@H](O)CC4)c3n2)CCC1
(R) CCCCNc1ncc2c3ccc(CN4CCN(C)CC4)cc3c(=O)n([C@H]3CC[C@H](NC(C)=O)C3)c2n1
(S) O=c1c2cc(CN3CCC4(CC3)COC4)ccc2c2cnc(NCC3CC3)nc2n1[C@H]1CC[C@H](O)CC1
(T) CC(C)N1CCN(c2ccc3c(c2)c(=O)n([C@H]2CC[C@H](O)CC2)c2nc(NCC4CC4)ncc32)CC1 [Compound 109]
Request: Please list these compounds in decreasing order of EC50. Answer format: list of labels, ordered as asked.
Result: P, Q, R, T, S

====

# ASSAY_SYSTEM: MerTK (Homo sapiens, UniProt Q12866)
# Construct: Seed HUVECs (10K cells/well) in EBM-2 complete media
# PROTOCOL_NOTES: PAKT HTRF-HUVEC assay (pAkt Ser473 HTRF after anti-human MerTK-XL stimulation)
# EXPERIMENTAL_PARAMETERS: HUVEC cells, 1 hour compound, stimulated with anti-human MerTK-XL 1 ug/mL for 10 minutes, read-out: inhibition of MerTK
MEASURE_NAME: EC50 (nM)

Completed entries (count: 8):
>  <MOLECULE>
CCCCNc1ncc2c3ccc(N4CCC(N5CCCC5)CC4)cc3c(=O)n(C3CCC(=O)CC3)c2n1 [Compound 72]

>  <ASSAY_SYSTEM>
MerTK (Homo sapiens, UniProt Q12866)

>  <UNITS>
nM

>  <EXPERIMENTAL_VALUE>
220

$$$$
>  <MOLECULE>
CC(C)(C)N1CCN(Cc2ccc3c(c2)c(=O)n([C@H]2CC[C@H](O)CC2)c2nc(NCC4CC4)ncc32)CC1 [Compound 182]

>  <ASSAY_SYSTEM>
MerTK (Homo sapiens, UniProt Q12866)

>  <UNITS>
nM

>  <EXPERIMENTAL_VALUE>
7.6

$$$$
>  <MOLECULE>
O=c1c2cc(CN3CCN4CCC[C@H]4C3)ccc2c2cnc(NCC3CC3)nc2n1[C@H]1CC[C@H](O)CC1 [Compound 157]

>  <ASSAY_SYSTEM>
MerTK (Homo sapiens, UniProt Q12866)

>  <UNITS>
nM

>  <EXPERIMENTAL_VALUE>
49.7

$$$$
>  <MOLECULE>
C[C@]1(O)CC[C@H](n2c(=O)c3cc(CN4CCN(C5COC5)CC4)ccc3c3cnc(NCC4CC4)nc32)CC1 [Compound 36]

>  <ASSAY_SYSTEM>
MerTK (Homo sapiens, UniProt Q12866)

>  <UNITS>
nM

>  <EXPERIMENTAL_VALUE>
16.8

$$$$
>  <MOLECULE>
O=c1c2cc(CN3CCS(=O)(=O)CC3)ccc2c2cnc(NCC3CC3)nc2n1[C@H]1CC[C@H](O)CC1 [Compound 49]

>  <ASSAY_SYSTEM>
MerTK (Homo sapiens, UniProt Q12866)

>  <UNITS>
nM

>  <EXPERIMENTAL_VALUE>
221

$$$$
>  <MOLECULE>
CCCCNc1ncc2c3ccc(CN4CCN(C)CC4)cc3c(=O)n([C@H]3CCC[C@H](O)CCC3)c2n1 [Compound 127]

>  <ASSAY_SYSTEM>
MerTK (Homo sapiens, UniProt Q12866)

>  <UNITS>
nM

>  <EXPERIMENTAL_VALUE>
89.1

$$$$
>  <MOLECULE>
CN1CCN(Cc2ccc3c(c2)c(=O)n([C@H]2CC[C@H](C(=O)O)CC2)c2nc(NCC4CC4)ncc32)CC1 [Compound 135]

>  <ASSAY_SYSTEM>
MerTK (Homo sapiens, UniProt Q12866)

>  <UNITS>
nM

>  <EXPERIMENTAL_VALUE>
4040

$$$$
>  <MOLECULE>
O=c1c2cc(N3CCN4CCC3CC4)ccc2c2cnc(NCC3CC3)nc2n1C1CCC(O)CC1 (centres unmarked) [Compound 163]

>  <ASSAY_SYSTEM>
MerTK (Homo sapiens, UniProt Q12866)

>  <UNITS>
nM

>  <EXPERIMENTAL_VALUE>
113

$$$$

(a) CCCCNc1ncc2c3ccc(N4CCN(C(C)C)CC4)cc3c(=O)n(C3CCC(=O)CC3)c2n1 [Compound 70]
(b) O=c1c2cc(CN3CCN(c4ccncn4)CC3)ccc2c2cnc(NCC3CC3)nc2n1[C@H]1CC[C@H](O)CC1 [Compound 216]
(c) CCCCNc1ncc2c3ccc(CN4CCN(C)CC4)cc3c(=O)n([C@H]3CC[C@H](C#N)CC3)c2n1 [Compound 128]
Request: Rank the items in ascending order with respect to EC50. Hello, could you send the labels back in the order asked? Thank you.
Result: b, c, a
(b: 22.5 nM, c: 126 nM, a: 184 nM)

Hello, the source for this data is patent US11110082B2, in case you need it.
